B1: RNA-binding E3 ubiquitin-protein ligase MEX3C, residues 325 to 391; numbered along this chain, Q5U5Q3 (parent)
chain: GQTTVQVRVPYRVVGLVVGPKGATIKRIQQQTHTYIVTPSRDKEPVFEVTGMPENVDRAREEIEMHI

Variants of: B1
Test: abundance fitness (aPCA) (normalised: wild type 0, dead -1); higher = more abundant; growth selection in yeast, the domain comes from the species named
Conditions: Homo sapiens
The following variants are shown together with reported abundance fitness values.
Please state the value as a number alone, without comment.

Would you please look over these solved cases?
inputSequence: GQTTVQVRVPYRVVGLVVGPKGATIGRIQQQTHTYIVTPSRDKEPVFEVTGMPENVDRAREEIEMHI [K26G]
valueObserved: -0.769
//
inputSequence: GQTTVQVRVPYRVVGLVVGPKKATIKRIQQQTHTYIVTPSRDKEPVFEVTGMPENVDRAREEIEMHI [G22K]
valueObserved: -0.424
//
inputSequence: GQTTVQVRVPYRVVGLVVGPKGATIKRIQQQTHTIIVTPSRDKEPVFEVTGMPENVDRAREEIEMHI [Y35I]
valueObserved: -0.069
//
inputSequence: GQTTVQVRVPYRVVGLVVGPKGATIKRIQQQTHTYIVTPSRDKEPLFEVTGMPENVDRAREEIEMHI [V46L]
valueObserved: -0.332
//
inputSequence: GQTTVQVRVPYRVVGLVVGPKGATIKRIQKQTHTYIVTPSRDKEPVFEVTGMPENVDRAREEIEMHI [Q30K]
valueObserved: -0.016
//
inputSequence: GQTTVQVRVPYRVVGLVVGPKGADIKRIQQQTHTYIVTPSRDKEPVFEVTGMPENVDRAREEIEMHI [T24D]
valueObserved: -0.67
//
inputSequence: GQTTVQVRVPYRVVGLVVGPKGATIKRICQQTHTYIVTPSRDKEPVFEVTGMPENVDRAREEIEMHI [Q29C]
valueObserved: -0.392
//
inputSequence: GQTTVQVRVPYRVVGLVVGPKGATIKRIQQQTHTYIVTPSRDAEPVFEVTGMPENVDRAREEIEMHI [K43A]
valueObserved: 0.058
//
inputSequence: GQTTVQVRVPYRVVGLVVGPKGATIKRGQQQTHTYIVTPSRDKEPVFEVTGMPENVDRAREEIEMHI [I28G]
valueObserved: -0.883
//
inputSequence: GQTTVQVRVPYRVVGLVVGPKGATIKRIQQQTHTYIVTPSRPKEPVFEVTGMPENVDRAREEIEMHI [D42P]
valueObserved: -1.01

# input Consider the variant GQTTVQVRVPYRVVGLVVGSKGATIKRIQQQTHTYIVTPSRDKEPVFEVTGMPENVDRAREEIEMHI [P20S] and give its measured abundance fitness.
# output -0.408

# input Consider the variant GQTTVQVRVPYRVVGLVVGPKGATIKRIQQQTHTYIVTPSRDKEPVFEMTGMPENVDRAREEIEMHI [V49M] and give its measured abundance fitness.
# output -0.793
